Where do the numbers come from? From patent US20150011462A1.

# Tested Target: T1, human GLP-1 receptor (human, UniProt P43220 24-463)
# T1 construct: whole, on cells
# Experiment: competitive binding (SPA): displacement of 125I-GLP-1(7-36)NH2 from BHK cell membranes with human GLP-1 receptor; low HSA (max. 0.001% final)
Numbered stars: 1 amine (or outer) side, 2 acyl side, 3 side chain; on linkers, the order of the positions; unused ones are H or OH. Square brackets hold non-standard residues; d marks the D form. Side chains are listed from the residue outwards. Ends that are not written are not given here. * marks the point of attachment. C20 diacid = O=C(O)CCCCCCCCCCCCCCCCCCC(=O)*; C19 diacid = O=C(O)CCCCCCCCCCCCCCCCCC(=O)*; γGlu = O=C(O)[C@H](CCC(=O)[*:2])N[*:1]; Trx = NC[C@H]1CC[C@H](C(=O)O)CC1; PEG4 = NCCOCCOCCOCCOCCC(=O)O; AEEA = NCCOCCOCC(=O)O; Aib = CC(C)(N)C(=O)O
We begin with a simple list: items and their reported pIC50.
Entry type: numeric. Quantity: pIC50, the -log10 of concentration in molar units.

H[Aib]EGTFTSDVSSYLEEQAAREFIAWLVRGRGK([AEEA-AEEA-AEEA-AEEA-γGlu-Trx-C20 diacid])GGSK([AEEA-AEEA-AEEA-AEEA-γGlu-Trx-C20 diacid]) (Double-acylated, C-terminally extended GLP-1 analogue made by SPPS; also called 17); 8.74
H[Aib]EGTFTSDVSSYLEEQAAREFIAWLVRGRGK([AEEA-AEEA-γGlu-Trx-C20 diacid])SPEK([AEEA-AEEA-γGlu-Trx-C20 diacid]) (Double-acylated, C-terminally extended GLP-1 analogue made by SPPS; also called 11); 8.82

Look up pIC50: H[Aib]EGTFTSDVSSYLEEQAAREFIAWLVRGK([AEEA-AEEA-γGlu-Trx-C20 diacid])GEGPAK([AEEA-AEEA-γGlu-Trx-C20 diacid]) (Double-acylated, C-terminally extended GLP-1 analogue made by SPPS; also called 16) 8.85

Sample H[Aib]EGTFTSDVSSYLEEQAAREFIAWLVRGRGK([AEEA-AEEA-γGlu-Trx-C19 diacid])GGSK([AEEA-AEEA-γGlu-Trx-C19 diacid]) (Double-acylated, C-terminally extended GLP-1 analogue made by SPPS; also called 26) — what was its pIC50? 9.06

Can you look up the measured pIC50 of H[Aib]EGTFTSDVSSYLEEK([AEEA-AEEA-γGlu-Trx-C20 diacid])AAREFIAWLVRGRGGGGSK([AEEA-AEEA-γGlu-Trx-C20 diacid]) (Double-acylated, C-terminally extended GLP-1 analogue made by SPPS) for me? 9.07

Field request: pIC50 | item: H[Aib]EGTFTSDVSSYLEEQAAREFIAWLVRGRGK([PEG4-γGlu-Trx-C20 diacid])GGSK([PEG4-γGlu-Trx-C20 diacid]) (Double-acylated, C-terminally extended GLP-1 analogue made by SPPS; also called 10) 8.89
